Tested on: C. elegans
Experiment: microbe, parasite or virus in culture
Details: Caenorhabditis elegans, 24 h, read-out: Percentage of motility inhibition 24 h, Table S2, C. elegans SS assay, 110 μM, 24 h, averages of 4 data points
Measured parameter: inhibition at 110 µM (%)
Write the answer as a number in %, unit excluded.

*Q* Any idea what its inhibition at 110 µM is? The compound is CCCOC(=O)c1cc(O)c(O)c(O)c1 [Propyl gallate]
*A* 0

*Q* Let us now turn to COc1c(N2CCNC(C)C2)c(F)cc2c(=O)c(C(=O)O)cn(C3CC3)c12 (stereo not shown) [Gatifloxaci n]
*A* 0

*Q* Proceed to CC1(C)CCC[C@](C)([C@H]2CC[C@]3(C)[C@@H]2[C@H](O)C[C@@H]2[C@@]4(C)CC[C@H](O)C(C)(C)[C@@H]4CC[C@]23C)O1 [Panaxadiol]
*A* 36

*Q* Okay, and COc1c(O[C@@H]2O[C@H](CO)[C@@H](O)[C@H](O)[C@H]2O)cc2occ(-c3ccc(O)cc3)c(=O)c2c1O [Tectoridin] ?
*A* 11

----------
Assay: Spheroids toxicity assay (alamarBlue)
Format: cell-based
Details: human, HepG2 liver spheroids, pH 7.2, CC50 HepG2 spheroids / EC50 H. contortus; read-out: Selective Index (SI) CC50/EC50 Sph/H. c
Measured parameter: selectivity ratio at 3 d
Enter the number alone.

*Q* Could you tell me which selectivity ratio at 3 d is on file for CCCCCCCCN=c1ccn(CCCCCCCCCCn2ccc(=NCCCCCCCC)cc2)cc1 [Octenidine, reference compound] ?
*A* 25.8

----------
Tested on: C. elegans
Details: Table S2, C. elegans SS assay, 110 μM, 0 h, averages of 4 data points
Structures can show the parent of a compound that is named as a salt.
Measured parameter: Percentage of motility inhibition 0 h (%)
Give just the number in %; leave the unit off.

*Q* What does the record list as Percentage of motility inhibition 0 h for Nc1ncnc2c1ncn2[C@@H]1O[C@H](COP(=O)(O)O)[C@@H](O)[C@H]1O [Adenosine monophosphate] ?
*A* 8

*Q* Same again, this time with CC(=O)O.Cc1cc2c(C(C)C)c(O)c(O)c(C=O)c2c(O)c1-c1c(C)cc2c(C(C)C)c(O)c(O)c(C=O)c2c1O [Gossypol (acetic acid)]
*A* 0

*Q* Repeat for the following compound: C[C@@H]1CC[C@@H]2C(C(=O)O)=CO[C@@H](O[C@@H]3O[C@H](CO)[C@@H](O)[C@H](O)[C@H]3O)[C@H]12 [8-Epideoxyloganic acid]
*A* 2

*Q* Try the compound CC12CCC(CC1=O)C2(C)C (stereo not drawn) [(+)‐Camphor]
*A* 31

*Q* What do you get for C=C(C)[C@H]1C=C[C@@](C)(O)CC1 [cis-Isolimonenol] ?
*A* 2

*Q* Next up: C=C(C(=O)O)[C@@H]1CC[C@@]2(C)CCCC(=C)[C@]2(O)C1 [5α-Hydroxycostic acid]
*A* 13

*Q* Lookup COc1cc2c(cc1OC)[C@@H]1Cc3ccc(OC)c(OC)c3C[N@@+]1([O-])CC2 [(‐)‐Corynoxidine]
*A* 19

*Q* Try this compound too: O=c1cc(-c2ccccc2)oc2cc(O[C@@H]3O[C@H](CO[C@@H]4O[C@H](CO)[C@@H](O)[C@H](O)[C@H]4O)[C@@H](O)[C@H](O)[C@H]3O)c(O)c(O)c12 [Oroxin B]
*A* 0

*Q* Repeat with C/C=C(/C)C(=O)O[C@H]1C(C)=C[C@]23C(=O)[C@@H](C=C4COC(C)(C)O[C@H]4[C@]12O)[C@H]1[C@@H](C[C@H]3C)C1(C)C [Ingenol-5,20-acetonide-3-O-angelate]
*A* 0

*Q* Ok, now CC1(C)CC[C@]2(C(=O)O)CCC3=C(CC[C@@H]4[C@@]5(C)C[C@H](O)[C@H](O)[C@@](C)(C(=O)O)[C@@H]5CC[C@@]34C)[C@@H]2C1 [Polygalic acid]
*A* 0

*Q* Queued: Cc1ccc(Nc2cc(-c3cccc(N4C(=O)c5ccccc5C4=O)c3)ncn2)cc1NS(C)(=O)=O [CDK9‐IN‐1]
*A* 54

*Q* Try this compound too: COc1cc2c(cc1O)-c1c(OC)c(O)cc3c1[C@H](C2)NCC3 [Laetanine]
*A* 0

*Q* Repeat for the following compound: C[C@H]1CC[C@@H]2N(C1)C[C@H]1[C@@H]3C[C@H]4[C@@H](CC(=O)[C@H]5C[C@@H](O[C@@H]6O[C@H](CO)[C@@H](O)[C@H](O)[C@H]6O)CC[C@@]54C)[C@@H]3CC[C@H]1[C@]2(C)O [Imperialine 3‐β‐D‐glucoside]
*A* 10

*Q* Try this compound too: N=C(N)c1ccc(OCCCCCOc2ccc(C(=N)N)cc2)cc1.O=S(=O)(O)CCO.O=S(=O)(O)CCO [Pentamidine (isethionate)]
*A* 0

*Q* Next compound up: C[C@H](CC[C@@H](O[C@@H]1O[C@H](CO[C@@H]2O[C@H](CO)[C@@H](O)[C@H](O)[C@H]2O)[C@@H](O)[C@H](O)[C@H]1O[C@@H]1O[C@H](CO)[C@@H](O)[C@H](O)[C@H]1O)C(C)(C)O)[C@H]1CC[C@@]2(C)[C@@H]3CC=C4[C@@H](CC[C@H](O[C@@H]5O[C@H](CO[C@@H]6O[C@H](CO)[C@@H](O)[C@H](O)[C@H]6O)[C@@H](O)[C@H](O)[C@H]5O)C4(C)C)[C@]3(C)CC[C@]12C [11-Deoxymogroside V]
*A* 0

*Q* Would you kindly repeat that for CN[C@H](CC(C)C)C(=O)N[C@H]1C(=O)N[C@@H](CC(N)=O)C(=O)N[C@H]2C(=O)N[C@H]3C(=O)N[C@H](C(=O)N[C@H](C(=O)O)c4cc(O)cc(O)c4-c4cc3ccc4O)[C@H](O)c3ccc(c(Cl)c3)Oc3cc2cc(c3O[C@@H]2O[C@H](CO)[C@@H](O)[C@H](O)[C@H]2O[C@H]2C[C@](C)(N)[C@H](O)[C@H](C)O2)Oc2ccc(cc2Cl)[C@H]1O.Cl [Vancomycin (hydrochloride)] ?
*A* 15

*Q* Similarly, Nc1ncnc(N[C@@H]2O[C@H](CO)[C@@H](O)[C@H]2O)c1[N+](=O)[O-] [Clitocine] ?
*A* 0

*Q* Likewise for C[C@H]1CC[C@]2(C(=O)O)CC[C@]3(C)C(=CC[C@@H]4[C@@]5(C)CC[C@H](O[C@@H]6OC[C@@H](O)[C@H](O)[C@H]6O[C@@H]6O[C@H](CO)[C@@H](O)[C@H](O)[C@H]6O)C(C)(C)[C@@H]5CC[C@]43C)[C@@H]2[C@]1(C)O [Ilexoside D] ?
*A* 0

*Q* Could you do the same for CC(=O)O[C@H]1CC[C@]2(C)C3=C(CC[C@H]2C1(C)C)[C@]1(C)C[C@@H](O)[C@H]([C@@H](CCC=C(C)C)C(=O)O)[C@@]1(C)CC3 [3-O-Acetyl-16α-hydroxytrametenolic acid] , please?
*A* 7

*Q* Try this compound next: C=CC1=C(C)/C(=C/C2=NC(=C\c3[nH]c(/C=C4\NC(=O)C(C)=C4C=C)c(C)c3CCC(=O)O)/C(CCC(=O)O)=C2C)NC1=O [Biliverdin (hydrochloride)]
*A* 0

*Q* Check CC1=NCCc2c1[nH]c1cc(O)ccc21.Cl [Harmalol (hydrochloride)] too.
*A* 17

----------
Exercise: state measured inhibition at 110 µM for each of the compounds provided.
System: C. elegans
Test: microbe, parasite or virus in culture
Settings: Caenorhabditis elegans, 24 h, read-out: Percentage of motility inhibition 24 h, Table S2, C. elegans SS assay, 110 μM, 24 h, averages of 4 data points
Write the value in % as a bare number.

*Q* Which inhibition at 110 µM value is on record for COC(=O)C1=CO[C@@H](O[C@@H]2O[C@H](CO)[C@@H](O)[C@H](O)[C@H]2O)[C@@H]2C(CO)=CC[C@H]12 [Geniposide] ?
*A* 0

*Q* Try the compound CC(C)(C)C#Cc1cc(N(C(=O)[C@H]2CC[C@H](C)CC2)[C@H]2CC[C@H](O)CC2)c(C(=O)O)s1 [VX‐222]
*A* 57

*Q* Input Cc1ccc2c(Br)cc(Br)c(OC(=O)c3ccccc3)c2n1 [Broxaldine]
*A* 0

*Q* Consider next the compound CC(=O)OC[C@]12[C@H](OC(C)=O)[C@H](OC(C)=O)[C@@H]3[C@@H](OC(C)=O)[C@@]14O[C@@]3(C)COC(=O)c1cccnc1CCC(C)C(=O)O[C@@H]([C@H](OC(=O)c1ccco1)[C@@H]2OC(C)=O)[C@]4(C)O (some centres unmarked) [Wilforgine] in the same way.
*A* 5

*Q* What about O=c1c2ccccc2nc2n1CCc1c-2[nH]c2ccccc12 [Rutaecarpine] ?
*A* 24

*Q* Also, CC(C)(C)[C@H]1CC[C@H](CC2=C(O)C(=O)c3ccccc3C2=O)CC1 [Buparvaquone] please.
*A* 12

*Q* Next entry: C[C@]12CC[C@@H]3c4ccc(O)cc4CC[C@H]3[C@@H]1CC[C@@H]2O [Estradiol]
*A* 2

*Q* Now the compound Cc1nccc2c1[nH]c1ccccc12 [Harmane]
*A* 6
